Tested on: OVCAR-3 ovarian
Test: NCI-60 one-dose screen, 48 h
Details: 10 µM unless noted
The panel holds about 83,000 compounds, 20% with a hit somewhere; the sample as a whole holds those more often. Active and inactive are the calls of the source. Rule for the calls: active = growth percent below 10; inactive = the rest.
Log the outcome using a class from t (active), f (inactive)

Ask: For "COc1ccc(-c2cc(-c3ccccc3)nc(NCCNc3ccnc4cc(Cl)ccc34)n2)cc1" , which call appears in the assay record?
Result: t

Ask: For "CCn1cc(-c2ccnc(NCCNS(=O)(=O)c3cccc4ccccc34)c2)c(-c2cccc(O)c2)n1" , which call appears in the assay record?
Result: f

Ask: For "O=C(Nc1ccc(Cl)c(C(F)(F)F)c1)Nc1ccc(-c2cccnc2)cc1N1CCC(CO)CC1" , which call appears in the assay record?
Result: f

Ask: For "COc1ccc2nc3cc(Cl)ccc3c(Nc3ccc(O)cc3)c2c1" , which call appears in the assay record?
Result: f

Ask: For "C=C(C)[C@@H]1CC[C@]2(C(=O)NCCCCCCN(CCCN)CCCN)CC[C@]3(C)[C@H](CC[C@@H]4[C@@]5(C)CC[C@H](OCCCN)C(C)(C)[C@@H]5CC[C@]43C)[C@@H]12" , which call appears in the assay record?
Result: f

Ask: For Fc1cc2[nH]ncc2c2c3c(c(-c4cn[nH]c4C(F)(F)F)nc12)C1CCC3C1 (centres undefined) , which call appears in the assay record?
Result: f

Ask: For "CC(=O)CC(=O)SC1=NCCS1" , which call appears in the assay record?
Result: f

Ask: For "Cc1cc(NN=C(c2ccc(O)cc2)c2ccc(O)cc2)c([N+](=O)[O-])cc1[N+](=O)[O-]" , which call appears in the assay record?
Result: f

Ask: For "Cc1cnc(N)nc1OCCNC(=O)c1cccc(-c2ccc(S(=O)(=O)Nc3ccc4c(c3)N(C(=O)C3CC3)CCC4)cc2)c1" , which call appears in the assay record?
Result: f

---

Tested on: 786-0 renal
Test: NCI-60 one-dose screen, 48 h (100 = growth as untreated, 0 = no growth, -100 = all killed)
Details: 10 µM unless noted
Method: Cells are grown in 96 well plates and exposed to the test compound for 48 hours. Compounds are tested at a single concentration, which is 10^-5 M for most compounds. The reported endpoint is percent growth (GI% or GIPRCNT), where numbers from 0 - 100% represent growth inhibition, and numbers from -100% - 0 represent cell death. For example, a value of 40 represents 60% growth inhibition. A value of 0 means no net growth occurred over the course of the experiment. […]
This is part of a sample that, as a whole, favours compounds with a hit. Of some 83,000 tested, about 20% had one in any assay.
Exercise: state measured growth for each of the compounds provided.
Respond numerically; units are % and should not be typed.

Ask: Query growth for "COc1ccc2nc3cc(Cl)ccc3c(Nc3ccc(O)cc3)c2c1"
Result: 84

Ask: Query growth for "COc1ccc(C(=O)CSc2nccc(Nc3ccc(C(=O)O)cc3)n2)cc1"
Result: 103

Ask: Query growth for "CCOC(=O)COc1c(C)cc(SSc2cc(C)c(OCC(=O)OCC)c(C)c2)cc1C"
Result: 114

Ask: Query growth for C=CC1=C(C)C2=NC1=CC1=NC(=CC3=C(C)C4=C(O)C(C(=O)O)C(=C5NC(=C2)C(C)C5CCC(=O)O)C4=N3)C(CC)=C1C (stereo not given)
Result: 113

Ask: Query growth for "CC(=O)O.CC(=O)O.O.[Fe]"
Result: 112
